target: Luciferin 4-monooxygenase (Photinus pyralis) (UniProt P08659); test: firefly luciferase enzyme inhibitors, primary screen, artefact control for luciferase-based inhibitor screens, biochemical, luminescence, ATPLite (AID 1006); settings: 10 min, at 10 µM, active compounds read high
Sequence (P08659 whole entry, looked up): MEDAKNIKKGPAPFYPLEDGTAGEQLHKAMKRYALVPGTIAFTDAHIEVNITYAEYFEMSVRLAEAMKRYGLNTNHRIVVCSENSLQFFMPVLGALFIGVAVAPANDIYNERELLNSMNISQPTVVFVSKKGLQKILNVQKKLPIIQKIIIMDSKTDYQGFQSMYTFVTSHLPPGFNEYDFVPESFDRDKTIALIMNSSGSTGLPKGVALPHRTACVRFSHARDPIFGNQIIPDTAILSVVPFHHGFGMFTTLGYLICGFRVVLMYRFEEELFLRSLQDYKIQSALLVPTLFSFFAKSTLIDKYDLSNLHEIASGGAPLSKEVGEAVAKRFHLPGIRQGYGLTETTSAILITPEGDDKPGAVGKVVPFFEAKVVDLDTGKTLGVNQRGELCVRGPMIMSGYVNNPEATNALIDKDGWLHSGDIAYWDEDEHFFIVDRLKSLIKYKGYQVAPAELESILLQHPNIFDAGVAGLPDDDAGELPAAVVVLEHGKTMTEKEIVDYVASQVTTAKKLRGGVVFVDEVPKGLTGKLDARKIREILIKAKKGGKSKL
Out of some 200,000 compounds screened, about 3,000 (1.5%) were called active. The list comes from a sample in which actives are over-represented; it also holds close analogues and randomly drawn compounds.
METRIC NAME: inhibition (%)
A number alone suffices; assume %.

Worked cases, inhibition given:
CC(=C/c1ccccc1)/C=N/NC(=O)c1cc(C)oc1C : 78.3
COc1ccc(OC)c(S(=O)(=O)Nc2cccc(-c3ccc4nncn4n3)c2)c1 : -2.6
C=CCN(c1ccc(C(=O)Nc2cc(C)cc(C)c2)cc1)S(C)(=O)=O : -2.7
Cc1ccnc2nc(C(=O)OCC(=O)N(CC(C)C)CC(C)C)nn12 : -5.4
COc1ccc2nc(Nc3nc4cc5c(cc4s3)OCCO5)sc2c1 : 11.3
Cn1c(=O)c(C(=O)Nc2ncccn2)c(O)c2ccccc21 : 70.3
Cc1cc(C(=O)N/N=C\C(Br)=C\c2ccccc2)c(C)o1 : 22.6
CCOC(=O)c1c(C)[nH]c(C2=NNC(=NC(C)COC)SC2)c1C (centres undefined) : 56.5
Cn1c(=O)c(Sc2ccc(Cl)cc2)c(O)c2ccccc21 : -5.7
COc1ccc(/C=N/Nc2nc3ccccc3o2)cc1OC : 11.5

Exercise: # lookup: inhibition of O=C(Nc1ccn(Cc2ccc(F)cc2)n1)c1ccncc1
Solution: 0.9

Exercise: And then CC(=O)Nc1ccc(/C=N/NC(=O)c2cccs2)cc1 , what is it?
Solution: 42.4

Exercise: Then Cc1cccc(-n2c(C)cc(/C=N/NC(N)=S)c2C)c1 ?
Solution: 0.5

Exercise: Record: Cc1ccc(S(=O)(=O)Nc2nc(N)n(-c3ccccc3)n2)cc1
Solution: -5.1
